# assay target: PfLDH (Plasmodium falciparum, UniProt Q76NM3)
# Sequence (Q76NM3 1-316): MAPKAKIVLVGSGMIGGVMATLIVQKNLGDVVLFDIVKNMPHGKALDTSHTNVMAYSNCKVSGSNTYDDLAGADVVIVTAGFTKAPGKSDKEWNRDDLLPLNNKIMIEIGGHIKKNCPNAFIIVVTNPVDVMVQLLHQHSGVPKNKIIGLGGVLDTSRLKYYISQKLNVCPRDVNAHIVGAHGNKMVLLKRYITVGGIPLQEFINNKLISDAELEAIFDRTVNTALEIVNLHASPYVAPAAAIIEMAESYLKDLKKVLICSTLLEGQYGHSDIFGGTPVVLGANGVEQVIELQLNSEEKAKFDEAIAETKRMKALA
measurement kind: Kd (nM)
Enter your answer as a number in nM; do not include the unit.

Please provide the recorded Kd for CCN(CC)CCCC(C)Nc1ccnc2cc(Cl)ccc12 (stereo not shown) , tested on PfLDH (Plasmodium falciparum, UniProt Q76NM3).
320

###

# assay target: PfOAT (Plasmodium falciparum)
# Sequence (Q6LFH8 1-414): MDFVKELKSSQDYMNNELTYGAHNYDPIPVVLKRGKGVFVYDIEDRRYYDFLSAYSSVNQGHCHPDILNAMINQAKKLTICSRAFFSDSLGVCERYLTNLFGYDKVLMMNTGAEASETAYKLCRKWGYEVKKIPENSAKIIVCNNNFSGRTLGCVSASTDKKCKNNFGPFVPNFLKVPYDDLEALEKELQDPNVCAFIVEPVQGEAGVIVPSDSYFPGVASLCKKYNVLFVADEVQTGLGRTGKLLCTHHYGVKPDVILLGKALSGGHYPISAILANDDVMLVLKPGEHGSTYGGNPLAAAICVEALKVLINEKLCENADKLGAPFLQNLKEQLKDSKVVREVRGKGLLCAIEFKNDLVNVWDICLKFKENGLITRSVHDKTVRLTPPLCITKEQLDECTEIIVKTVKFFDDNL
measurement kind: Kd (µM)
Give just the number in µM; leave the unit off.

// map CCN(CC)CCCC(C)Nc1ccnc2cc(Cl)ccc12 (stereo not shown) to recorded Kd (system: PfOAT (Plasmodium falciparum))
1.91
